- TEST_DETAILS: Cell membrane permeability (cell monolayer, A to B and B to A)
- Assay type: in vitro ADME
- TEST_PARAMETERS: 120 min, 37°C
ENDPOINT_LABEL: efflux ratio at 2 h, 10 µM
Please reply with the value in numeric form only.

MOLECULE | efflux ratio at 2 h, 10 µM
O=C1C(Cc2ccc(Cl)c(F)c2)CCCN1c1nc2c([nH]1)COc1cnccc1-2 (centres unmarked) | 0.9

Now let's try a different one.
Item under review: O=C1C(Cc2cc(F)c(Cl)c(F)c2)CCN1c1nc2ccc3cnccc3c2[nH]1 (centres unmarked) . Reported efflux ratio at 2 h, 10 µM?
1.15
